Can you tell me IC50 for the items I'm about to list?
- MEASURED ON: hNav1.7 (Homo sapiens, UniProt Q15858)
- Sequence (Q15858 whole entry): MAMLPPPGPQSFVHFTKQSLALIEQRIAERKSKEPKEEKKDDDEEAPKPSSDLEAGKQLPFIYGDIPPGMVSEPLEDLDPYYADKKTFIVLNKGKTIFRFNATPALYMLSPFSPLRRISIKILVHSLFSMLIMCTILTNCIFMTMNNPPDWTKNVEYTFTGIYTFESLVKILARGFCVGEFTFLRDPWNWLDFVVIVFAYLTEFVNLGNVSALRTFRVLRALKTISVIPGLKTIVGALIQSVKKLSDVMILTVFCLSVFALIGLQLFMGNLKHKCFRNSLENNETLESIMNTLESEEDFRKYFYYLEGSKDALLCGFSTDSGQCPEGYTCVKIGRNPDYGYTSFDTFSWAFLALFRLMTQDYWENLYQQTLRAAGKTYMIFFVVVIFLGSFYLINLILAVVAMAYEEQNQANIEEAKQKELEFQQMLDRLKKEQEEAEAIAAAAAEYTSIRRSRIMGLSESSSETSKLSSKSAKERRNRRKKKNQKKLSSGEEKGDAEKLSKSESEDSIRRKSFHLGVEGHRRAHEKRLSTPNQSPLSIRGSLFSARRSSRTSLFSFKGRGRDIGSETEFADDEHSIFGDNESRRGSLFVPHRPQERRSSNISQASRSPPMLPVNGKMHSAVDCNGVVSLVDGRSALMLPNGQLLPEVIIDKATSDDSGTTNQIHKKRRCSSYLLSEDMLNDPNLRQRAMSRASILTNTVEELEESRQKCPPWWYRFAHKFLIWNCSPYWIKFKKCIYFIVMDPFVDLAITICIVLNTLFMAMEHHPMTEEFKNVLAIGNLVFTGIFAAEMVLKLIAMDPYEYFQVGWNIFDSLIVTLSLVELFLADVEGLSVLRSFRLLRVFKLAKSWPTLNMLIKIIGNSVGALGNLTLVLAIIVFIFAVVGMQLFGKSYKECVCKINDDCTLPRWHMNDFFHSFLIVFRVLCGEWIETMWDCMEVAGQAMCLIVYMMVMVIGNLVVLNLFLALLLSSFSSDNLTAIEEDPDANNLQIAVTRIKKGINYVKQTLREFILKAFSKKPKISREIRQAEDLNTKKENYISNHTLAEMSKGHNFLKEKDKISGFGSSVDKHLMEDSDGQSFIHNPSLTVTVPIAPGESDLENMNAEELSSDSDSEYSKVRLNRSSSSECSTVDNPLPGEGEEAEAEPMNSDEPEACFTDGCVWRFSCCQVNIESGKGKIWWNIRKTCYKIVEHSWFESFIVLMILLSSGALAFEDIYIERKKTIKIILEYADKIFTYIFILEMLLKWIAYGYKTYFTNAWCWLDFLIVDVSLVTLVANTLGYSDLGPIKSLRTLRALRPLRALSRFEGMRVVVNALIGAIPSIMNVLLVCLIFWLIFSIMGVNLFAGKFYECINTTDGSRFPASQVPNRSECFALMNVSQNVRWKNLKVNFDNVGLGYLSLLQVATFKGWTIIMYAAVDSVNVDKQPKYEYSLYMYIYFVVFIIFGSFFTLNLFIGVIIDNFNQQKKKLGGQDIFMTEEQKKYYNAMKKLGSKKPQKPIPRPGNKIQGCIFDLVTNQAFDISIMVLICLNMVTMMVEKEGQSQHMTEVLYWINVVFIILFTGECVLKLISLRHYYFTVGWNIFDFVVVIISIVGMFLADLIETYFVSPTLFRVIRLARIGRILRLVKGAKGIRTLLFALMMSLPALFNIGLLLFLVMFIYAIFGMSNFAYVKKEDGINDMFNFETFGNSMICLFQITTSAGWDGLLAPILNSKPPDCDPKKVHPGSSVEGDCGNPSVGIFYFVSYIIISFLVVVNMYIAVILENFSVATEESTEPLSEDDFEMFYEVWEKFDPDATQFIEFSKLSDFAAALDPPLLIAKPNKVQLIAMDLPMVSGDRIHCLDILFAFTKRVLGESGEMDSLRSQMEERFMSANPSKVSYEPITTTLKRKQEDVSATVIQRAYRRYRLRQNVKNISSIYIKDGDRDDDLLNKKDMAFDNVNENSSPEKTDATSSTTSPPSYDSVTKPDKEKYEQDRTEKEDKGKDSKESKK
- Sequence (Q07699 19-218 partner): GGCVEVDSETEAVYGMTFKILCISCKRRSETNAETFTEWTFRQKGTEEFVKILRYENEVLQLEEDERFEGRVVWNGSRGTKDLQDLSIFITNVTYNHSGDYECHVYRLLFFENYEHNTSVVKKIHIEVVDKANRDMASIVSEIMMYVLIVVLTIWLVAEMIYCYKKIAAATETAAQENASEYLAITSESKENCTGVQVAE
- ASSAY EXPLANATION: Tritiated sulfonamide binding to membranes from cells expressing hNav1.7 and the β1 subunit (Nav 1.7 ligand binding assay, competitive)
- CONDITION DESCRIPTION: competition with 100 pM [3H]compound, room temperature, 18 h
Returns: string containing the number followed by the unit.

In: Please report the recorded IC50 for "CS(=O)(=O)NC(=O)c1cc(C2CC2)c(OCC2CCN(Cc3cc(Cl)cc(OC4CC4)c3)CC2)cc1F" .
Out: 6 nM

In: How about this compound: COCC(c1cc(Cl)cc(Cl)c1F)N1CCC(COc2cc(F)c(C(=O)NS(C)(=O)=O)cc2C2CC2)CC1 (stereo not shown)
Out: 4.4 nM

In: Try the compound C[C@@H](c1ccc(F)c(Cl)c1)N1CCC(COc2cc(F)c(C(=O)NS(C)(=O)=O)cc2C2CC2)CC1 (single isomer, unassigned)
Out: 6 nM

In: Same question, CC(C)(C#N)[C@H](c1cc(Cl)cc(Cl)c1)N1CCC(COc2cc(F)c(C(=O)NS(C)(=O)=O)cc2C2CC2)CC1 (single isomer, unassigned) this time
Out: 4.2 nM

In: Now give it for C[C@H](c1cc(Cl)c(F)c(Cl)c1)N1CCC(COc2cc(F)c(C(=O)NS(C)(=O)=O)cc2C2CC2)CC1 (single isomer, unassigned) too.
Out: 3 nM

In: Next compound: CC(c1cc(C(F)(F)F)cc(C2CC2)n1)N1CCC(COc2cc(F)c(C(=O)NS(C)(=O)=O)cc2C2CC2)CC1 (stereo not shown)
Out: 9.1 nM

In: Please do the same for COC1(COc2cc(F)c(C(=O)NS(C)(=O)=O)cc2C2CC2)CCN([C@@H](C)c2cc(Cl)cc(Cl)c2)CC1 (single isomer, unassigned) as well.
Out: 9.2 nM

In: What do you get for "O=C(NS(=O)(=O)C1CC1)c1cc(C2CC2)c(OCC2CCN(Cc3cc(Cl)cc(C(F)(F)F)n3)CC2)cc1F" ?
Out: 4.2 nM

In: Here is the next compound: "COc1c(Cl)cc(Cl)cc1CN1CCC(COc2cc(F)c(C(=O)NS(C)(=O)=O)cc2C2CC2)CC1"
Out: 6.5 nM

In: How about C[C@@H](c1cc(Cl)cc(Cl)c1C#N)N1CCC(COc2cc(F)c(C(=O)NS(C)(=O)=O)cc2C2CC2)CC1 (single isomer, unassigned) ?
Out: 5.5 nM

In: Likewise for COc1c(Cl)cc(Cl)cc1[C@@H](C)N1CCC(COc2cc(F)c(C(=O)NS(C)(=O)=O)cc2C2CC2)CC1 (single isomer, unassigned) ?
Out: 5.1 nM

In: Moving on to the next compound: "CS(=O)(=O)NC(=O)c1cc(C2CC2)c(OCC2(O)CCN(Cc3cc(Cl)cc(Cl)c3)CC2)cc1F"
Out: 10 nM

In: Can you check "CS(=O)(=O)NC(=O)c1cc(C2CC2)c(OCC2(F)CCN(Cc3ncc(C(F)(F)F)cc3Cl)CC2)cc1F" next?
Out: 19 nM
